assayProtocol: The drug is tested on WLS-086 corresponding to human gut metagenome with ENA study accession number: PRJEB37062 and ENA sample accession number: ERS12561752 for biotransformation under anaerobic condition. The drug concentrations were measured over 9 timepoints collected between 0 and 24 hours of incubation by liquid-chromatography-coupled mass spectrometry (LC–MS); also: call rule not given here
measurementContext: 2 µM
assayReadout: Bacterial Biotransformation

Recorded Bacterial Biotransformation, per entry:
Cc1ccccc1N1C(=O)c2cc(S(N)(=O)=O)c(Cl)cc2NC1C (stereo unspecified) [METOLAZONE]
Compound metabolized
Cc1ccc(S(=O)(=O)NC(=O)NN2CCCCCC2)cc1 [TOLAZAMIDE]
Compound metabolized
NC(CO)(CO)CO.O=C(c1ccccc1)c1ccc2n1CCC2C(=O)O (stereo unspecified) [KETOROLAC TROMETHAMINE]
Compound metabolized
COC1=CC(=O)C[C@@H](C)[C@]12Oc1c(Cl)c(OC)cc(OC)c1C2=O [GRISEOFULVIN]
Compound metabolized
CNCCC(Oc1ccc(C(F)(F)F)cc1)c1ccccc1 (stereo unspecified) [FLUOXETINE]
Compound NOT metabolized

Now look at this entry.
Recorded result, CC(C)c1c(C(=O)Nc2ccccc2)c(-c2ccccc2)c(-c2ccc(F)cc2)n1CC[C@@H](O)C[C@@H](O)CC(=O)O [ATORVASTATIN] , Bacterial Biotransformation: Compound metabolized
